B1: RTP4 (parent)
chain: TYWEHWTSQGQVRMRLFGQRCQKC

- Variants of: B1
- RUN DESCRIPTION: protein stability index of a GFP-peptide fusion (GPS, HEK-293T) (PSI 1-6); higher = more stable;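 also: lentivirally expressed fusions sorted by FACS into six bins by GFP to DsRed ratio, PSI derived from sequencing read proportions per bin multiplied by bin number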
- CONDITION LABEL: c terminus: a fixed tail appended
MEASURED QUANTITY: protein stability index

VAR	protein stability index
C24T	2.41
Q22K	1.61
Q22L	2.36
G18E	2.24
W3K	2.96

Recorded protein stability index of `T7S` , please. 1.79

Recorded protein stability index of `T7A` , please. 1.53

Recorded protein stability index of `Q11C` , please. 3.14

Recorded protein stability index of `F17H` , please. 2.79

Recorded protein stability index of `M14R` , please. 2.29
